What pKd was measured for each of the following?
# SYSTEM_NAME: T1, HTRA4, P83105
# T1 sequence (P83105 378-476, limits assumed, looked up): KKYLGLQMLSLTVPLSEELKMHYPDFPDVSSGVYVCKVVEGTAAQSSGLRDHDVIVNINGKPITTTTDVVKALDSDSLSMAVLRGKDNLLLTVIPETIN
# TEST_PROTOCOL: holdup assay
# Set-up: key: below the threshold = too weak to quantify, mostly under pKd 3.1 to 4
# RUN_PARAMETERS: plain residues with an end cap or a label only (N-terminal biotin on a linker: ado-ado)
One number for each entry.

• LPHPHSTTRV [NLGN2, Q8NFZ4] = 3.97

# per-item lookup of pKd; items listed below
1. YYKRPVQEWV [MMP24, Q9Y5R2]
2. TSQESEDTYL [TBC1D10A, Q9BXI6]
3. LPHGHSTTRV [NLGN4X, Q8N0W4]
4. DDEDRLVIEI [ZNF831, Q5JPB2]
5. LSEFKAMDSI [CTNNA1, P35221]
6. HSGYRLNDYV [CLDN14, O95500]
7. HLRARKSEWV [GJD4, Q96KN9]
8. PLSPEQPTKL [TRIM50, Q86XT4]

Found:
[4.37, 3.75, 4.04, 4.97, 3.85, 3.95, 4.51, 3.75]

# per-item lookup of pKd; items listed below
1. YNNCLEILRV [DCAF7, P61962]
2. PKRSFIESNV [TANC1, Q9C0D5]
3. DTTVPESEDL [MYOZ2, Q9NPC6]

Found:
4.68
3.92
3.8
